log10(IC50) for assorted molecules
Test system: ATR-driven phosphorylation of Chk1 kinase at Serine 345 in HT-29 colorectal adenocarcinoma cells
ASSAY NOTES: pCHK1 cellular assay (CHK1 p-Ser345 AlphaScreen SureFire)
Format: cell-based
CONDITION DESCRIPTION: Homo sapiens, HT-29, HT-29 cells, 4-nitroquinoline N-oxide 12 uM; read-out: Cell IC50 (pCHK1 IC50 values)
Log10 applied to IC50; unit prior to transform: nM.

Below, 8 molecules whose answers are already recorded.
- MOLECULE: "CC(C)Oc1cc(N2Cc3c(ncnc3C3CCN(S(C)(=O)=O)CC3)C[C@H]2C)c2cc[nH]c2n1 [Example 93]"
  log10(IC50): 1.18
- MOLECULE: "C[C@@H]1Cc2ncnc(N3CCC[C@@H](NS(C)(=O)=O)C3)c2CN1c1cc(Cl)nc2[nH]ccc12 [Example 72]"
  log10(IC50): 2.08
- MOLECULE: "CNC(=O)C1CCN(c2ncnc3c2CN(c2cc(Cl)nc4[nH]ccc24)[C@H](C)C3)CC1 [Example 76]"
  log10(IC50): 1.79
- MOLECULE: "C[C@@H]1Cc2ncnc(N3CCCC(S(C)(=O)=O)C3)c2CN1c1cc(Cl)nc2[nH]ccc12 (stereo partly drawn) [Example 65]"
  log10(IC50): 0.90
- MOLECULE: "CS(=O)(=O)N1CCC(c2ncnc3c2CN(c2ccnc4[nH]ccc24)[C@H](CF)C3)CC1 [Example 52b]"
  log10(IC50): 2.32
- MOLECULE: "C[C@@H]1Cc2ncnc(N3CCC(NS(C)(=O)=O)CC3)c2CN1c1ccnc2[nH]ccc12 [Example 64]"
  log10(IC50): 1.20
- MOLECULE: "C[C@@H]1Cc2ncnc(N3CCC4(CC3)CNC(=O)O4)c2CN1c1cc(Cl)nc2[nH]ccc12 [Example 31]"
  log10(IC50): 1.86
- MOLECULE: "CS(=O)(=O)N1CCC(c2ncnc3c2CN(c2ccnc4[nH]ccc24)CC3)CC1 [Example 2, bis(trifluoroacetate)]"
  log10(IC50): 3.29

log10(IC50) in this record for C[C@@H]1Cc2ncnc(C3CCN(S(C)(=O)=O)CC3)c2CN1c1cc(OC2CC2)nc2[nH]ccc12 [Example 97] : 1.11

The molecule C[C@@H]1Cc2ncnc(N3CC(S(C)(=O)=O)C3)c2CN1c1ccnc2[nH]ccc12 [Example 36] showed log10(IC50) equal to 2.11

# log10(IC50) (molecule: C[C@@H]1Cc2ncnc(N3CC(NS(C)(=O)=O)C3)c2CN1c1ccnc2[nH]ccc12 [Example 84] ) is 1.90

Briefly, log10(IC50) measured for CNC(=O)[C@@H]1CCCN(c2ncnc3c2CN(c2cc(Cl)nc4[nH]ccc24)[C@H](C)C3)C1 [Example 44] : 1.96

Value of log10(IC50) reported for the molecule C[C@@H]1Cc2ncnc(N3CC(NS(C)(=O)=O)C3)c2CN1c1cc(Cl)nc2[nH]ccc12 [Example 35] is 1.53

Just so you know, measured log10(IC50) for C[C@@H]1Cc2ncnc([C@@H]3CCN(S(C)(=O)=O)C(C)(C)C3)c2CN1c1ccnc2[nH]ccc12 (single isomer, unassigned) [Example 48a] came out at 2.88

Sample C[C@@H]1Cc2ncnc(C3CCN(S(C)(=O)=O)CC3)c2CN1c1ccnc2[nH]ncc12 [Example 42] ; log10(IC50) observed: 3.48
